# procedure.summary: Lipophilicity, log D of the compound in octanol buffer at pH 7.4 by shake flask method
# Assay type: physicochemical

compound	logD
C[C@H]1O[C@@H](n2cnc3c(N)nc(OCC4CC45CC5)nc32)[C@H](O)[C@@H]1O (stereo partly specified)	1.78
C[C@H]1O[C@@H](n2cnc3c(N)nc(OC4CCCC4)nc32)[C@H](O)[C@@H]1OCc1ccc(Cl)c(Cl)c1	> 3.5
C[C@H]1O[C@@H](n2cnc3c(N)nc(O[C@H]4CC[C@H](C)CC4)nc32)[C@H](O)[C@@H]1O	2.35
[N-]=[N+]=N[C@@H]1[C@@H](O)[C@H](n2cnc3c(N)nc(OC4CCCC4)nc32)O[C@@H]1CF	2.65
C[C@H]1O[C@@H](n2cnc3c(N)nc(OCC4CC45CC5)nc32)[C@H](O)[C@H]1Cl (stereo partly specified)	3.7
C[C@H]1O[C@@H](n2cnc3c(N)nc(OC4CCCC4)nc32)[C@H](O)[C@H]1Cl	3.18
